assaySystem: Human S1P1 receptor (Homo sapiens, UniProt P21453)
Sequence (P21453 whole entry): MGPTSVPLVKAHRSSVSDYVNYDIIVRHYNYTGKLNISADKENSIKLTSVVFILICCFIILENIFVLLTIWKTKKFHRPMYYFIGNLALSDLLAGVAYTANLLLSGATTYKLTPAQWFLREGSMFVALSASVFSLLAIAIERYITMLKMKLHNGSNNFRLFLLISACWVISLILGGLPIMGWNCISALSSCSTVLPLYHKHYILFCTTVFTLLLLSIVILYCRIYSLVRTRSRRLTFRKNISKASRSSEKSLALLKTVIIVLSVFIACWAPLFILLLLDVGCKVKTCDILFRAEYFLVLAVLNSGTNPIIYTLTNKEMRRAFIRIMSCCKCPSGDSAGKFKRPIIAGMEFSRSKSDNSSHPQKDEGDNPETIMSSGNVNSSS
methodSummary: Agonist activity at an S1P1 receptor ([35S]-GTPγS exchange reaction, membrane fractions)
Assay type: biochemical
particulars: read-out: EC50, agonist activity at S1P1 receptor (GTP exchange reaction)
measurementName: EC50

[in] Sample CC(C)Oc1ccc(-c2cnc(-c3ccc(CN4CC(C(=O)O)C4)c(C(F)(F)F)c3)s2)cc1Cl — what was its EC50?
[out] ≤ 50 nM

[in] Item under review: CCCCc1ccc(-c2cnc(-c3ccc(CN4CC(C(=O)O)C4)cc3)s2)cc1 . Reported EC50?
[out] ≤ 50 nM

[in] Given the molecule CC(C)Oc1ccc(-c2cnc(-c3ccc(CN4CC(C(=O)O)C4)c(Cl)c3)s2)cc1 , what is its reported EC50?
[out] ≤ 50 nM

[in] Which value of EC50 has been reported for CC(C)Oc1ccc(-c2cnc(-c3ccc(CN4CC(C(=O)O)C4)cc3)s2)cc1F in the records?
[out] ≤ 500 nM

[in] Reported EC50, molecule O=C(O)C1CN(Cc2ccc(-c3ncc(-c4ccc(C5CCCC5)cc4)s3)cc2)C1 : ____
[out] ≤ 10 nM

[in] // lookup EC50 for CC(C)Oc1ccc(-c2cnc(-c3ccc(CN4CC(C(=O)O)C4)cc3F)s2)cc1
[out] ≤ 50 nM

[in] Bench note: what EC50 did CC(C)Cc1ccc(-c2cnc(-c3ccc(CN4CC(C(=O)O)C4)cc3)s2)cc1 show?
[out] ≤ 50 nM

[in] I am curious: what EC50 value has been reported for CC(C)Oc1ccc(-c2cnc(-c3ccc(CN4CC(C(=O)O)C4)cc3)s2)cc1C#N ?
[out] ≤ 50 nM

[in] Query: EC50; subject: CC(C)Oc1ccc(-c2cnc(-c3ccc(C(C)N4CC(C(=O)O)C4)cc3)s2)cc1 (centres unmarked)
[out] ≤ 100 nM

[in] Field request: EC50 | item: CC(C)Oc1ccc(-c2cnc(-c3ccc(CN4CC(C(=O)O)C4)cc3)s2)cc1Cl
[out] ≤ 10 nM

[in] # query: EC50 of entry Cc1cc(-c2cnc(-c3ccc(CN4CC(C(=O)O)C4)cc3)s2)ccc1OC(C)C
[out] ≤ 50 nM

[in] Bench note: what EC50 did CC(C)Oc1ccc(-c2cnc(-c3ccc(CN4CC(C(=O)O)C4)c(F)c3)s2)cc1Cl show?
[out] ≤ 50 nM

[in] Bench note: what EC50 did CCCOc1ccc(-c2cnc(-c3ccc(CN4CC(C(=O)O)C4)cc3)s2)cc1 show?
[out] ≤ 50 nM

[in] Suppose we examine the molecule CCOc1ccc(-c2cnc(-c3ccc(CN4CC(C(=O)O)C4)cc3)s2)cc1 ; what EC50 value has been reported?
[out] ≤ 50 nM

[in] Which EC50 value belongs to Cc1cc(-c2ncc(-c3ccc(OC(C)C)c(Cl)c3)s2)ccc1CN1CC(C(=O)O)C1 ?
[out] ≤ 10 nM

[in] Quick one: EC50 of Cc1cc(CN2CC(C(=O)O)C2)ccc1-c1ncc(-c2ccc(OC(C)C)c(Cl)c2)s1 ?
[out] ≤ 10 nM

[in] Reported EC50 for O=C(O)C1CN(Cc2ccc(-c3ncc(-c4ccc(C5CCCCC5)cc4)s3)cc2)C1 : what is it?
[out] ≤ 100 nM

----------
assaySystem: Human S1P1 receptor (Homo sapiens, UniProt P21453)
methodSummary: Agonist activity at an S1P1 receptor (reporter assay, EDG1-bla/U2OS cells)
Format: cell-based
Design: host or cells: U2OS (EDG1-bla/U2OS)
particulars: S1P maximum response = 100%
Experimental: Human S1P1 receptor gene recombinant EDG1-bla/U2OS cells (Life Technologies Japan Ltd.) were plated in a 96-well half-sized clear bottom black plate at a density of 10000 cells/32 μL/well, and then the plate was incubated at 37° C. in a 5% CO2 incubator for 48 hours. […] The intensity ratio of fluorescence at 460 nm/530 nm was calculated for each well. The maximum response ratio confirmed from the dose response of SIP was expressed as 100%. […]
pEC50: −log10 of the molar value.
measurementName: pEC50

[in] Given the entry CCOc1ccc(-c2cnc(-c3ccc(CN4CC(C(=O)O)C4)cc3)s2)cc1 [Example 31] , report its measured pEC50.
[out] ≥ 7.00

[in] # query: pEC50 of entry CC(C)Oc1ccc(-c2cnc(-c3ccc(CN4CC(C(=O)O)C4)cc3C3CC3)s2)cc1 [Example 14]
[out] ≥ 8.00

[in] Name the recorded pEC50 for CC(C)Oc1ccc(-c2cnc(-c3ccc(CN4CC(C(=O)O)C4)cc3Cl)s2)cc1Cl [Example 60] .
[out] ≥ 9.00

[in] Given CC(C)Oc1ccc(-c2cnc(-c3ccc(CN4CC(C(=O)O)C4)cc3)s2)cc1C(F)(F)F [Example 56] , state its recorded pEC50.
[out] ≥ 9.00

[in] Which pEC50 is listed for COc1cc(CN2CC(C(=O)O)C2)ccc1-c1ncc(-c2ccc(OC(C)C)c(Cl)c2)s1 [Example 61] ?
[out] ≥ 7.00

[in] Find the recorded pEC50 belonging to COc1cc(-c2ncc(-c3ccc(OC(C)C)c(Cl)c3)s2)ccc1CN1CC(C(=O)O)C1 [Example 64] and report it.
[out] ≥ 8.00

[in] Report pEC50 for CC(C)Oc1ccc(-c2cnc(-c3ccc(CN4CC(C(=O)O)C4)c(Cl)c3)s2)cc1 [Example 23] please.
[out] ≥ 8.00

[in] Can you look up the measured pEC50 of CC(C)Oc1ccc(-c2cnc(-c3ccc(CN4CC(C(=O)O)C4)c(C4CC4)c3)s2)cc1 [Example 24] for me?
[out] ≥ 7.00

[in] Entry under review: CCCCc1cc(CN2CC(C(=O)O)C2)ccc1-c1ncc(-c2ccc(OC(C)C)cc2)s1 [Example 13] . Reported pEC50?
[out] ≥ 7.00

[in] What does the data say about its pEC50? Entry: CC(C)Oc1ccc(-c2cnc(-c3ccc(CN4CC(C(=O)O)C4)cc3)s2)cc1F [Example 53]
[out] ≥ 8.00

[in] What value of pEC50 has been reported for the following compound? CC(C)(C)c1ccc(-c2cnc(-c3ccc(CN4CC(C(=O)O)C4)cc3)s2)cc1 [Example 33]
[out] ≥ 7.00

[in] I am curious: what pEC50 value has been reported for CC(C)Oc1ccc(-c2cnc(-c3ccc(CN4CC(C(=O)O)C4)cc3Cl)s2)cc1 [Example 12] ?
[out] ≥ 8.00

[in] For the compound shown here, CC(C)Oc1ccc(-c2cnc(-c3ccc(CN4CC(C(=O)O)C4)cc3)s2)c(C(F)(F)F)c1 [Example 55] , give the reported pEC50.
[out] ≥ 8.00

[in] I would be grateful if you could share the reported pEC50 for CC(C)Oc1ccc(-c2cnc(-c3ccc(CN4CCC(C(=O)O)CC4)cc3)s2)cc1 [Example 5] .
[out] ≥ 6.30

[in] Sample O=C(O)C1CN(Cc2ccc(-c3ncc(-c4ccc(OC5CCCCC5)cc4)s3)cc2)C1 [Example 43] — what was its pEC50?
[out] ≥ 7.00

[in] Sample O=C(O)C1CN(Cc2ccc(-c3ncc(-c4ccc(OC5CCC5)cc4)s3)cc2)C1 [Example 51] — what was its pEC50?
[out] ≥ 7.00

----------
assaySystem: Human S1P3 receptor (Homo sapiens, UniProt Q99500)
Sequence (Q99500 whole entry): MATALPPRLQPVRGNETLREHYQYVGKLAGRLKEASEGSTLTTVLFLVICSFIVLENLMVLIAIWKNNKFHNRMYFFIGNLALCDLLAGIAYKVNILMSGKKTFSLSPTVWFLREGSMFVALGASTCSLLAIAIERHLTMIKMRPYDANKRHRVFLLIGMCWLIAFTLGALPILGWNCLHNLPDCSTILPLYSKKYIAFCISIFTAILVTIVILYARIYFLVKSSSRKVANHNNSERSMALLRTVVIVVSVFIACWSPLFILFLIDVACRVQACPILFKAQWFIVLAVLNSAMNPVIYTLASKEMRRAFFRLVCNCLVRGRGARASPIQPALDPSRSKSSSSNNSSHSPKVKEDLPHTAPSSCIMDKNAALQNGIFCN
methodSummary: Agonist activity at an S1P3 receptor ([35S]-GTPγS exchange reaction at 1000 nM)
Assay type: biochemical
particulars: read-out: percent of the maximal agonist activity at S1P3 receptor
measurementName: Emax at 1 µM

[in] Recorded Emax at 1 µM of CC(C)Oc1ccc(-c2cnc(-c3ccc(CN4CC(C(=O)O)C4)cc3)s2)c(C(F)(F)F)c1 , please.
[out] < 20%

[in] Given the compound Cc1cc(CN2CC(C(=O)O)C2)ccc1-c1ncc(-c2ccc(OC(C)C)cc2)s1 , what is its reported Emax at 1 µM?
[out] 20 to 50%

[in] Requested read-out: Emax at 1 µM. Entry: O=C(O)C1CN(Cc2ccc(-c3ncc(-c4ccc(OC5CCC5)cc4)s3)cc2)C1
[out] 20 to 50%

[in] Quick one: Emax at 1 µM for CC(C)Oc1ccc(-c2cnc(-c3ccc(CN4CC(C(=O)O)C4)cc3F)s2)cc1Cl ?
[out] 20 to 50%

[in] Quick one: Emax at 1 µM of CC(C)Cc1ccc(-c2cnc(-c3ccc(CN4CC(C(=O)O)C4)cc3)s2)cc1 ?
[out] 20 to 50%

[in] # Emax at 1 µM lookup, item CC(C)Oc1ccc(-c2cnc(-c3ccc(CN4CC(C(=O)O)C4)cc3)s2)cc1C#N
[out] 20 to 50%

[in] Fill in the blank: the reported Emax at 1 µM of COc1cc(CN2CC(C(=O)O)C2)ccc1-c1ncc(-c2ccc(OC(C)C)c(Cl)c2)s1 is ____.
[out] < 20%

[in] Could you tell me which Emax at 1 µM is on file for COc1cc(-c2ncc(-c3ccc(OC(C)C)c(Cl)c3)s2)ccc1CN1CC(C(=O)O)C1 ?
[out] < 20%

[in] What Emax at 1 µM value was documented for this compound, CC(C)Oc1ccc(-c2cnc(-c3ccc(CN4CC(C(=O)O)C4)c(F)c3)s2)cc1 ?
[out] < 20%

[in] Entry under review: CCc1cc(CN2CC(C(=O)O)C2)ccc1-c1ncc(-c2ccc(OC(C)C)cc2)s1 . Reported Emax at 1 µM?
[out] < 20%

[in] What value of Emax at 1 µM has been recorded for this entry: CC(C)Oc1ccc(-c2cnc(-c3ccc(CN4CC(C(=O)O)C4)cc3)s2)cc1
[out] < 20%

[in] Query: Emax at 1 µM; subject: Cc1cc(-c2cnc(-c3ccc(CN4CC(C(=O)O)C4)cc3)s2)ccc1OC(C)C
[out] 20 to 50%

[in] What value of Emax at 1 µM has been recorded for this entry: Cc1cc(-c2ncc(-c3ccc(OC(C)C)c(Cl)c3)s2)ccc1CN1CC(C(=O)O)C1
[out] 20 to 50%

[in] What does the record list as Emax at 1 µM for CCCc1ccc(-c2cnc(-c3ccc(CN4CC(C(=O)O)C4)cc3)s2)cc1 ?
[out] < 20%
